assay_name: Solubility of linker-payloads (LC-MS standard curve, saturated solution)
Format: physicochemical
stated_conditions: water, thermodynamic from solid, Aq. Solubility (mg/mL)
Method: The following test assays the solubility of the linker-payloads with a cyclodextrin moiety and the linker-payloads without a cyclodextrin moiety. The test compounds were dissolved in DMSO to build a standard curve using LC-MS method A or B. The test sample was dissolved in water and sonicated for 10 minutes, and then centrifuged. The upper clear solution was analyzed using the same method A or B and the solubility was calculated based on its peak area. Detailed test procedures were as follows: • 1. […]
test_readout: solubility at 10 min (µg/mL)
The answer is to be given in µg/mL; state only the numeric part.

solubility at 10 min reported for this molecule CC(C)[C@H](NC(=O)[C@@H](CCCCNC(=O)CCOCCOCCOCCOCCNC(=O)COC1CCCCCc2nnn(CC3OC4OC5C(CO)OC(OC6C(CO)OC(OC7C(CO)OC(OC8C(CO)OC(OC9C(CO)OC(OC3C(O)C4O)C(O)C9O)C(O)C8O)C(O)C7O)C(O)C6O)C(O)C5O)c21)NC(=O)CCOCCOCCOCCOCCNC(=O)CCC(=O)N1Cc2ccccc2C#Cc2ccccc21)C(=O)N[C@@H](C)C(=O)Nc1ccc2c(c1)[C@@]1(C)CCC[C@](C)(C(=O)NC(=O)[C@@]3(C)CCC[C@]4(C)c5cc(O)ccc5CC[C@@H]34)[C@@H]1CC2 (stereo partly shown) : 330
